# ASSAY NAME: Apparent volume of distribution in ICR mouse at 10 mg/kg, iv administered as single dose by LC-MS/MS analysis
# Assay type: ADME, organism-based
# CONDITION: in vivo, read-out: Vz
RESULT TYPE: Vd (L/kg)
Report only the number, with the unit L/kg understood.

Data point: C=CC(=O)Nc1ccc(-c2ccnc(Nc3ccc(N4CCOCC4)cc3)n2)cc1 ; Vd = 8.36

* * *

RESULT TYPE: log10(IC50) (log10 of the value in nM)
Plainly stated, the numbers are log10 of IC50 given in nM.

Result for C=CC(=O)NCC(=O)Nc1cccc(-c2cc(Nc3cnn(CCOC)c3)ncn2)c1 , tested on Tyrosine-protein kinase JAK3 (Homo sapiens), log10(IC50): 1.82

Observed log10(IC50) on Tyrosine-protein kinase JAK3 (Homo sapiens), entry C/C=C/C(=O)NCC(=O)Nc1cccc(-c2cc(Nc3ccc(N4CCOCC4)cc3)ncn2)c1 , equals 2.57

Field log10(IC50) (Tyrosine-protein kinase JAK3 (Homo sapiens)), entry C=CC(=O)Nc1cccc(-c2cc(Nc3ccc(N4CCOCC4)cc3)ncn2)c1 : 2.26

Entry C/C=C/C(=O)Nc1cccc(-c2cc(Nc3cnn(CCN(C)C)c3)ncn2)c1 : log10(IC50) on Tyrosine-protein kinase JAK3 (Homo sapiens) = 1.83

Record C/C=C/C(=O)Nc1ccc(-c2cc(Nc3ccc(N4CCOCC4)cc3)ncn2)cc1 has Tyrosine-protein kinase JAK3 (Homo sapiens) log10(IC50) equal to 2.00

Simply: N#CCC(=O)Nc1cccc(-c2ccnc(Nc3ccc(N4CCOCC4)cc3)n2)c1 , Tyrosine-protein kinase JAK3 (Homo sapiens), log10(IC50) = 2.18

Tested on Tyrosine-protein kinase JAK3 (Homo sapiens): C/C=C/C(=O)Nc1cccc(-c2cc(Nc3cnn(CC(=O)NC)c3)ncn2)c1 . Observed log10(IC50): 1.96

// assay Tyrosine-protein kinase JAK3 (Homo sapiens), entry C/C=C/C(=O)Nc1cccc(-c2cc(Nc3cnn(CCOC)c3)ncn2)c1 , log10(IC50) value = 1.46

Observed log10(IC50) on Tyrosine-protein kinase JAK3 (Homo sapiens), entry CNC(=O)Cn1cc(Nc2cc(-c3cccc(NC(=O)CNC(=O)CC#N)c3)ncn2)cn1 , equals 2.10

Simply: C/C=C/C(=O)Nc1ccc(-c2cc(Nc3cnn(CCOC)c3)ncn2)cc1 , Tyrosine-protein kinase JAK3 (Homo sapiens), log10(IC50) = 1.88

Hey, Tyrosine-protein kinase JAK3 (Homo sapiens) data for Cn1cc(Nc2cc(-c3cccc(NC(=O)CC#N)c3)ncn2)cn1 : log10(IC50) came out at 2.16

Let me check: COCCn1cc(Nc2nccc(-c3ccc(NC(=O)CC#N)cc3)n2)cn1 , system Tyrosine-protein kinase JAK3 (Homo sapiens), measured log10(IC50) is 1.38

The reported log10(IC50) value, Tyrosine-protein kinase JAK3 (Homo sapiens), for C=CC(=O)Nc1cccc(-c2cc(Nc3cnn(CCOC)c3)ncn2)c1 reads 2.00

Record for C/C=C/C(=O)Nc1ccc(-c2ccnc(Nc3cnn(CCOC)c3)n2)cc1 under target or system Tyrosine-protein kinase JAK3 (Homo sapiens): log10(IC50) reported as 1.15

The recorded log10(IC50) with Tyrosine-protein kinase JAK3 (Homo sapiens) for N#CCC(=O)Nc1ccc(-c2cc(Nc3ccc(N4CCOCC4)cc3)ncn2)cc1 was 1.89

Tyrosine-protein kinase JAK3 (Homo sapiens) data for C=CC(=O)Nc1ccc(-c2ccnc(Nc3cnn(CCOC)c3)n2)cc1 ; its log10(IC50): 0.96

# lookup: C=CC(=O)Nc1cccc(-c2ccnc(Nc3ccc(N4CCOCC4)cc3)n2)c1 on Tyrosine-protein kinase JAK3 (Homo sapiens), log10(IC50) = 1.48

With Tyrosine-protein kinase JAK3 (Homo sapiens) as the test system, C=CC(=O)Nc1cccc(-c2cc(Nc3cnn(CC(=O)NC)c3)ncn2)c1 showed log10(IC50) of 2.14

Measured on Tyrosine-protein kinase JAK3 (Homo sapiens), N#CCC(=O)NCC(=O)Nc1cccc(-c2cc(Nc3ccc(N4CCOCC4)cc3)ncn2)c1 has a documented log10(IC50) of 2.40

Considering C=CC(=O)NCC(=O)Nc1cccc(-c2cc(Nc3ccc(N4CCOCC4)cc3)ncn2)c1 , its log10(IC50) with Tyrosine-protein kinase JAK3 (Homo sapiens) was recorded as 2.01

So the reported log10(IC50) for C/C=C/C(=O)Nc1cccc(-c2cc(Nc3cnn(CCO)c3)ncn2)c1 , on Tyrosine-protein kinase JAK3 (Homo sapiens), turned out to be 2.34

Query C=CC(=O)Nc1ccc(-c2cc(Nc3ccc(N4CCOCC4)cc3)ncn2)cc1 on Tyrosine-protein kinase JAK3 (Homo sapiens); log10(IC50) returned: 2.05
